- Target or test system: full length SGK1 (Homo sapiens, UniProt O00141)
- Construct: 125 μM full length SGK1 (Life Technologies Part #PR7358A); purchased Life Technologies PR7358A
- Sequence (O00141 whole entry): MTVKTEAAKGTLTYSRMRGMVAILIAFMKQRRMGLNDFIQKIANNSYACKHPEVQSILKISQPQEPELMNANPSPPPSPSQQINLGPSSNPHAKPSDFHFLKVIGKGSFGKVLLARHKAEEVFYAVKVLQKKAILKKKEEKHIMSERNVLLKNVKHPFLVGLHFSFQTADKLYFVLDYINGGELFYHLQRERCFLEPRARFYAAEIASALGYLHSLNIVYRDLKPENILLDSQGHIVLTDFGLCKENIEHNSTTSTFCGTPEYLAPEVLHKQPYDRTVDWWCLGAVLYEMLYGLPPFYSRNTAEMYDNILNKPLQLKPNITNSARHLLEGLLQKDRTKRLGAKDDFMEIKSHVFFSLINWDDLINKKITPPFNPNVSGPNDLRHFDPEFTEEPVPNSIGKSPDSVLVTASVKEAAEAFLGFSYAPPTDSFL
- Assay details: SGK1 inhibition Assay A (Caliper LabChip electrophoretic separation of fluorescent peptide substrate and phosphorylated product)
- Format: biochemical
- Test settings: Assay A; 20 μM ATP, 40 min incubation; read-out: SGK1 IC50
Counter-ions that a name gives are not always drawn.
Threshold-based label: IC50 under 9 nM gives true, IC50 not under 9 nM gives false.

compound=CC(=O)N1CC=C(c2cc(N3CCC[C@@H](NC(=O)c4sc(C(F)F)cc4N4CCOCC4)C3)c3c(N)ncnn23)C1 group=false
compound=CN1CCC(COc2cc(Cl)sc2C(=O)N[C@@H]2CCCN(c3cc(-c4cncnc4)n4ncnc(N)c34)C2)CC1 group=true
compound="Cc1cc(C(=O)N[C@@H]2CCCN(c3cc(-c4ccc(S(C)(=O)=O)cc4)n4ncnc(N)c34)C2)cc(=O)[nH]1 [Example 40, TFA]" group=false
compound="Nc1ncnn2c(-c3ccnc(F)c3)cc(N3CCC[C@@H](NC(=O)c4ccc(C(F)(F)F)s4)C3)c12 [Example 154, TFA]" group=true
compound=CC(C)c1cc(C(=O)N[C@@H]2CCCN(c3cc(-c4ccc(S(C)(=O)=O)cc4)n4ncnc(N)c34)C2)on1 group=false
compound="CC(C)n1cc(C(=O)N[C@@H]2CCCN(c3cc(-c4ccc(S(C)(=O)=O)cc4)n4ncnc(N)c34)C2)cn1 [Example 77, TFA]" group=false
compound=Cc1cc(-c2cc(N3CCC[C@@H](NC(=O)c4ccc(C(F)F)s4)C3)c3c(N)ncnn23)cnc1C#N group=false
compound=CC(=O)N1CC=C(c2cc(N3CCC[C@@H](NC(=O)c4ccc(Cl)s4)C3)c3c(N)ncnn23)C1 group=true
compound=Nc1ncnn2c(-c3cccc(Cl)c3)cc(N3CCC[C@@H](NC(=O)c4ccc(Cl)s4)C3)c12 group=false
compound=NC(=O)c1ccc(-c2cc(N3CCC[C@@H](NC(=O)c4sc(Cl)cc4OCC4CCNCC4)C3)c3c(N)ncnn23)cc1F group=true
compound=CS(=O)(=O)c1ccc(-c2cc(N3CCC[C@@H](NC(=O)c4cnco4)C3)c3c(N)ncnn23)cc1 group=false
compound=CC(=O)N1CC=C(c2cc(N3CCC[C@@H](NC(=O)c4cc5ccccc5n4C)C3)c3c(N)ncnn23)C1 group=false
compound=Nc1ncnn2c(-c3ccnc(C(F)F)c3)cc(N3CCC[C@@H](NC(=O)c4sc(C(F)F)cc4N4CC5(COC5)C4)C3)c12 group=false
compound=Nc1ncnn2c(-c3ccc4nncn4c3)cc(N3CCC[C@@H](NC(=O)c4ccc(Cl)s4)C3)c12 group=true
compound=Cn1cc(C(=O)N[C@@H]2CCCN(c3cc(-c4ccc(S(C)(=O)=O)cc4)n4ncnc(N)c34)C2)cn1 group=false
compound=N#Cc1ncc(-c2cc(N3CCC[C@@H](NC(=O)c4ccc(C(F)F)s4)C3)c3c(N)ncnn23)cc1C(F)(F)F group=false
compound=Nc1ncnn2c(-c3cnccn3)cc(N3CCC[C@@H](NC(=O)c4ccc(Cl)s4)C3)c12 group=false
compound=CC(=O)N1CC=C(c2cc(N3CCC[C@@H](NC(=O)c4sc(Cl)cc4OCC4CCNCC4)C3)c3c(N)ncnn23)C1 group=true
compound=CC(=O)N1CC=C(c2cc(N3CCC[C@@H](NC(=O)c4sc(C(F)F)cc4C4CCN(C(C)C)CC4)C3)c3c(N)ncnn23)C1 group=false
compound=N#Cc1ccc(-c2cc(N3CCC[C@@H](NC(=O)c4sc5ccccc5c4OC4CCNCC4)C3)c3c(N)ncnn23)cn1 group=true
compound="CS(=O)(=O)c1ccc(-c2cc(N3CC[C@@H](NC(=O)c4ccc(Cl)s4)C3)c3c(N)ncnn23)cc1 [Example 137, TFA]" group=false
compound=NC(=O)c1ccc(-c2cc(N3CCC[C@@H](NC(=O)c4sc(Cl)cc4OC4CC5(CNC5)C4)C3)c3c(N)ncnn23)cn1 group=true

Data provenance is patent US20260250290A1.
